Known Rat Liver ER Neutral α-Glucosidase Inhibition, m ± SD of a selection of molecules
System: Rat Liver ER Neutral α-Glucosidase
protocol-notes: Endoplasmic reticulum α-glucosidase activity assay
Assay type: biochemical
assay-setup: 100 μM
Give the figure together with its unit, number first.

The cases that follow already have their Rat Liver ER Neutral α-Glucosidase Inhibition, m ± SD on record.
>  <molecule>
C=C(C)[C@@H]1CC[C@]2(C(=O)OC)CC[C@]3(C)[C@H](CC[C@@H]4[C@@]5(C)C/C(=C/NC(N)=S)C(=O)C(C)(C)[C@@H]5CC[C@]43C)[C@@H]12

>  <result>
26.60 ± 13.03%

$$$$
>  <molecule>
C[C@H]1O[C@H](O[C@H]2[C@H](O)[C@@H](O)[C@@H](O[C@H]3[C@H](O)[C@@H](O)C(O)O[C@@H]3CO)O[C@@H]2CO)[C@H](O)[C@@H](O)[C@@H]1N[C@H]1C=C(CO)[C@@H](O)[C@H](O)[C@H]1O (some centres unmarked) [Acarbose, reference compound]

>  <result>
24.09 ± 6.48%

$$$$
>  <molecule>
C=C(C)[C@@H]1CC[C@]2(C(=O)NCCCNCCCN)CC[C@]3(C)[C@H](CC[C@@H]4[C@@]5(C)CCC(=O)C(C)(C)[C@@H]5CC[C@]43C)[C@@H]12

>  <result>
14.94 ± 6.31%

$$$$
>  <molecule>
C=C(C)[C@@H]1CC[C@]2(C(=O)OC)CC[C@]3(C)[C@H](CC[C@@H]4[C@@]5(C)C/C(=C/NC(N)=O)C(=O)C(C)(C)[C@@H]5CC[C@]43C)[C@@H]12

>  <result>
9.62 ± 6.94%

$$$$

Lab note: next molecule to report on.
For C=C(C)[C@@H]1CC[C@]2(C=NCCCNCCCCN)CC[C@]3(C)[C@H](CC[C@@H]4[C@@]5(C)CCCNC(C)(C)[C@@H]5CC[C@]43C)[C@@H]12 , what is its reported Rat Liver ER Neutral α-Glucosidase Inhibition, m ± SD? 54.62 ± 15.38 %
